test system: SK-BR-3 tumor cells; test: In vitro proliferation inhibition of compounds of formula (GH), CCK8, 6 days; format: cell-based, human; settings: Homo sapiens, 144 h; SK-BR-3 cells, 6 days, CCK8, 2% FBS
parameter-measured: IC50 (nM)
Only the number, expressed in nM, is required.

May I ask what IC50 has been recorded for O=C1OCc2c(cc3n(c2=O)Cc2c-3nc3cc4c(cc3c2CCCCO)OCO4)[C@@]1(O)CC1CC1 [Compound 3] ?
0.24
